- Tested on: homoserine transsuccinylase
- method: Homoserine transsuccinylase activity test (Lee et al.), 5,5'-dithiobis(2-nitrobenzoic acid), absorption at 412 nm, with and without SAM
- Assay type: biochemical, E. coli
- details: 1 mM SAM; activity in the absence of SAM corresponds to 100%
readout.label: Activity (%) in the presence of 1 mM SAM
Answers are plain numbers, in %.

Exercise: Give its Activity (%) in the presence of 1 mM SAM value. Item: pSLmetAI: MetA variant with Ile instead of Asp at position 101 (protein, UniProt P07623 2-309, looked up, variant D101I) Homoserine …: PIRVPDELPAVNFLREENVFVMTTSRASGQEIRPLKVLILNLMPKKIETENQFLRLLSNSPLQVDIQLLRIDSRESRNTPAEHLNNFYCNFEDIQDQNFIGLIVTGAPLGLVEFNDVAYWPQIKQVLEWSKDHVTSTLFVCWAVQAALNILYGIPKQTRTEKLSGVYEHHILHPHALLTRGFDDSFLAPHSRYADFPAALIRDYTDLEILAETEEGDAYLFASKDKRIAFVTGHPEYDAQTLAQEFFRDVEAGLDPDVPYNYFPHNDPQNTPRASWRSHGNLLFTNWLNYYVYQITPYDLRHMNPTLD
Key: 93
